# TGI annotations
Tested on: U251 CNS
Assay: NCI tumour cell line growth inhibition, 48 h
Quantity Name: TGI

>>> reading("COC(=O)[C@@H]1C2OC(C)(C)OC2CN1C(=O)OCc1ccccc1 (stereo partly specified)")
"> 100 µM"
>>> reading("COc1ccc2c(c1)CC[C@@H]1[C@@H]2CC[C@]2(C)C(=O)/C(=C/c3ccncc3)C[C@@H]12")
"> 100 µM"
>>> reading("COc1ccc([C@H]2C=C(c3cc(F)c(Cl)cc3Cl)NC(=S)N2)cc1")
"95.8 µM"
>>> reading("O=C(OCC1OC(OC(=O)c2cc(O)c(O)c(OC(=O)c3cc(O)c(O)c(O)c3)c2)C(OC(=O)c2cc(O)c(O)c(OC(=O)c3cc(O)c(O)c(O)c3)c2)C(OC(=O)c2cc(O)c(O)c(OC(=O)c3cc(O)c(O)c(O)c3)c2)C1OC(=O)c1cc(O)c(O)c(OC(=O)c2cc(O)c(O)c(O)c2)c1)c1cc(O)c(O)c(OC(=O)c2cc(O)c(O)c(O)c2)c1 (stereo unspecified)")
"> 50 µM"
>>> reading("COc1cc(C)c2c(=O)c3c(oc2c1)C(=O)c1c(O)c(OC)cc(O)c1C3=O")
"2.53 µM"
>>> reading("Nc1ncnc2c(C3OC(CO)C(O)C3O)scc12 (stereo unspecified)")
"> 100 µM"
>>> reading("C=CC(=O)N1CCC([C@@H]2CCNc3c(C(N)=O)c(-c4ccc(Oc5ccccc5)cc4)nn32)CC1")
"> 77.1 µM"
>>> reading("O=C1c2cc3c(cc2[C@@H]2[C@H]1c1ccc([N+](=O)[O-])cc1C(=O)N2CCCCl)OCO3")
"< 0.0128 µM"
>>> reading("CCC1(C(=O)OC)CCc2c(OC)ccc(OC)c2C1=O (stereo unspecified)")
"> 100 µM"
>>> reading("COc1ccc(C2=Nn3c(nc4sc(-c5ccccc5)cc4c3=O)SC2)cc1")
"> 100 µM"
>>> reading("NCCCC1NC(=O)/C(=C(O)/C=C/C2CCC[C@@H]2CC2SCCS2)C1=O (stereo partly specified)")
"> 100 µM"
>>> reading("O=C(O)c1nc2ccccc2nc1Nc1ccc(F)cc1")
"> 100 µM"
>>> reading("NC(=O)Nc1cc(O)ccc1N=Nc1ccc(S(=O)(=O)Nc2ccccn2)cc1")
"> 100 µM"
>>> reading("O=c1oc2ccc(Cl)cc2c(=O)n1-c1cc(C(F)(F)F)cc(C(F)(F)F)c1")
"11.6 µM"
>>> reading("C/C1=C\\[C@H](C)C[C@H](C)OC(=O)C[C@H](c2ccc(O)cc2)NC(=O)[C@H](Cc2ccc(O)c(Br)c2)N(C)C(=O)[C@H](C)NC(=O)[C@@H](C)C1")
"> 25 µM"
>>> reading("O=C(O)CCCCCO")
"> 100 µM"

* * *

# TGI annotations
Test system: HOP-92 NSCLC
Assay: NCI tumour cell line growth inhibition, 48 h
Quantity Name: TGI (µM)

>>> reading("Cc1ccc(C(CC(=O)C(C)(C)CN2CCCCC2)SCCS(=O)(=O)O)cc1 (stereo not drawn)")
42.3
>>> reading("CC(=O)OC1C/C(C)=C/CCC(C)/C=C/C2(C)CCC(C(C)(C)O)C12 (stereo not drawn)")
51.4
>>> reading("Cc1ncc(C(=O)Nc2ccc(CN3CCN(C)CC3)c(C(F)(F)F)c2)cc1C#Cc1cnc(N)c2ncccc12")
1.66
>>> reading("CC(=O)OC1CCC2(C)C(CCC3C4CC=C(C(C)=O)C4(C)OC(=O)CC32)C1 (stereo not drawn)")
4.21
>>> reading("C[C@]12CC[C@H](O)C=C1CC[C@@H]1[C@@H]2CC[C@]2(C)C(=N/O)/C(=C/c3ccncc3)C[C@@H]12")
31.6
>>> reading("COc1cc2c(cc1Oc1ccc(OC)c3c1CC1c4c(cc(OC)c(OC)c4-3)CCN1C)CC1c3c(cc(OC)c(OC)c3-2)CCN1C (stereo not drawn)")
12.4
>>> reading("COc1cccc(-n2ncc3c(N/N=C/c4ccc(S(C)(=O)=O)cc4)ncnc32)c1")
18.7
>>> reading("CC[N+]1(C)CCC(O)(c2ccccc2)C(C(=O)c2ccccc2)C1 (stereo not drawn)")
25.4
>>> reading("CN(C)C(=O)c1cc2cnc(Nc3ccc(-c4csc5c(=O)cc(N6CCNCC6)oc45)cc3)nc2n1C1CCCC1")
16.5
>>> reading("O=C(O)c1nc2ccccc2nc1Nc1ccc(F)cc1")
85.9
